system-tested: 5HT2A (Homo sapiens)
assay-text: Receptor Selection and Amplification (R-SAT) functional assay
Format: cell-based
Design: expressed in transfected cells; host or cells: NIH3T3 cells, pSI mammalian expression vector
reported-conditions: NIH3T3 cells; Ki from IC50 by Cheng and Prussoff; read-out: 5-HT2a (pKi) (R-SAT) (converted)
Reported log10 of Ki is given for each of the following compounds.
On a log10 scale: recorded Ki, unit nM.

Worked cases, log10 of Ki given:
CN1CCC(N(Cc2ccc(F)cc2F)C(=O)NCc2ccc(Oc3ccccc3)cc2)CC1 = 0.90
COc1ccc(CN(C(=O)NCc2ccc(OCC(C)C)cc2)C2CCN(C)CC2)c(C(F)(F)F)c1 = 2.10
COc1cc(CNC(=O)N(Cc2ccc(F)cc2F)C2CCN(C)CC2)ccc1Cl = 0.50

# next compound below
Give log10 of Ki only, for Cc1ccc(F)c(CN(C(=O)NCc2ccc(OC(C)C)cc2)C2CCN(C)CC2)c1F , using 5HT2A (Homo sapiens) data.
1.60

###

system-tested: 5HT2A (Homo sapiens, UniProt P28223)
Sequence (P28223 whole entry): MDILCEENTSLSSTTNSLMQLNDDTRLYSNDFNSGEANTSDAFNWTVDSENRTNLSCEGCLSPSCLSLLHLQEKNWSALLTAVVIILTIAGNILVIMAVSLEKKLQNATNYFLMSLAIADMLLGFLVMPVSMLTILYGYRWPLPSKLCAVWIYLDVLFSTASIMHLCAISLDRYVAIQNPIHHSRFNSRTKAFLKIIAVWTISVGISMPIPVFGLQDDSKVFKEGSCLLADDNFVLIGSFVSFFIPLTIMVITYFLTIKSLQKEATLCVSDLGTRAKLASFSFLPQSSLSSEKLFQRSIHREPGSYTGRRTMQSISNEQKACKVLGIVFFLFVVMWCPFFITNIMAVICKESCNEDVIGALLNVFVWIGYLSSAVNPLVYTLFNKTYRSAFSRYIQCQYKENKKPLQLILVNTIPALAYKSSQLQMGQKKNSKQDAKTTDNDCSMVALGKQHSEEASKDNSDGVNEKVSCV
assay-text: Receptor Selection and Amplification (R-SAT) functional assay
Format: cell-based
Parameters: expressed in transfected cells; host or cells: NIH3T3 cells, pSI mammalian expression vector
reported-conditions: NIH3T3 cells; Ki from IC50 by Cheng and Prussoff; read-out: 5-HT2a (pKi) (R-SAT) (converted)
reported-metric: Ki (nM)
Only the number, expressed in nM, is required.

Worked cases, Ki given:
COc1cc(CNC(=O)N(Cc2ccc(F)cc2F)C2CCN(C)CC2)ccc1F = 5.01
Cc1c(F)ccc(CN(C(=O)NCc2ccc(OC(C)C)cc2)C2CCN(C)CC2)c1F = 6.31
CN1CCC(N(Cc2ccc(F)cc2F)C(=O)NCc2ccc3c(ccn3C)c2)CC1 = 6.31
CN1CCC(N(Cc2ccc(F)cc2F)C(=O)NCc2ccc3ncoc3c2)CC1 = 10
COc1ccc(CNC(=O)N(Cc2ccc(F)cc2F)C2CCN(C)CC2)c(C(F)(F)F)c1 = 25.1
CN1CCC(N(Cc2ccc(F)cc2F)C(=O)NCc2ccc3c(c2)C=CC(C)(C)O3)CC1 = 0.158
COc1ccc(CNC(=O)N(Cc2ccc(F)cc2F)C2CCN(C)CC2)cc1F = 10
CC(C)COc1ccc(CNC(=O)N(Cc2ccc(F)cc2)C2CCN(C)CC2)cc1F = 2

# return recorded Ki for entry CN1CCC(N(Cc2ccc(F)cc2F)C(=O)NCc2ccc3c(c2)OCO3)CC1
7.94

# return recorded Ki for entry CN1CCC(N(Cc2ccc(F)cc2F)C(=O)NCc2ccc3[nH]cnc3c2)CC1
79.4

# return recorded Ki for entry O=C(NCc1ccc(OC2CC2)cc1)N(Cc1ccc(F)cc1F)C1CCNCC1
0.631

# return recorded Ki for entry CC(C)COc1ccc(CNC(=O)N(Cc2ccc(F)cc2)C2CCN(C)CC2)c(F)c1
2

# return recorded Ki for entry CC(C)COc1ccc(CNC(=O)N(Cc2ccc(F)cc2)C2CCN(C)CC2)c(O)c1
1.58

# return recorded Ki for entry COc1ccc(CN(C(=O)NCc2ccc(OC(C)C)cc2)C2CCN(C)CC2)c(F)c1
7.94

# return recorded Ki for entry CC(C)Oc1ccc(CNC(=O)N(Cc2ccc(F)cc2F)[C@@H]2CCN3CCC[C@H]3C2)cc1
2.51

###

system-tested: 5HT2A (Homo sapiens)
assay-text: Receptor Selection and Amplification (R-SAT) functional assay
Type: cell-based
Set-up: expressed in transfected cells; host or cells: NIH3T3 cells, pSI mammalian expression vector
reported-conditions: NIH3T3 cells; Ki from IC50 by Cheng and Prussoff; read-out: 5-HT2a (pKi) (R-SAT) (converted)
reported-metric: log10 Ki (log10 of the value in nM)
On a log10 scale: recorded Ki, unit nM.

CN1CCC(N(Cc2ccc(F)cc2F)C(=O)NCc2ccc([N+](=O)[O-])cc2F)CC1 [Example 97, Trifluoroacetic Acid] = 1.60
CC(C)Oc1ccc(CNC(=O)N(Cc2ccc(F)cc2Cl)C2CCN(C)CC2)cc1 [Example 61] = 1.20
CN1CCC(N(Cc2ccc(F)cc2F)C(=O)NCc2ccc(OC3CC3)cc2)CC1 [Example 17] = -0.40
CN1CCC(N(Cc2ccc(F)cc2F)C(=O)NCc2ccc3c(c2)N(C)CCO3)CC1 [Example 32] = 0.90
CC(C)Oc1ccc(CNC(=O)N(Cc2ccc(F)cc2F)C2CCN(C)CC2)cc1 [Example 5] = 0.00
O=C(O)C(F)(F)F.[2H]C([2H])([2H])C(Oc1ccc(CNC(=O)N(Cc2ccc(F)cc2F)C2CCN(C)CC2)cc1)(C([2H])([2H])[2H])C([2H])([2H])[2H] [Example 46] = -0.10
CC(C)COc1ccc(CNC(=O)N(Cc2cc(F)c(F)cc2F)C2CCN(C)CC2)cc1 [Example 70] = 1.70
CC(C)COc1ccc(CNC(=O)N(Cc2ccc(C(F)(F)F)cc2O)C2CCN(C)CC2)cc1 [Example 90, Trifluoroacetic Acid] = 1.10

Give log10 Ki only, for CC(C)COc1ccc(CNC(=O)N(Cc2ccc(C(F)(F)F)cc2Cl)C2CCN(C)CC2)cc1 [Example 67] , using 5HT2A (Homo sapiens) data.
1.90

Give log10 Ki only, for CN1CCC(N(Cc2ccc(F)cc2F)C(=O)NCc2cccc3c2CC(C)(C)O3)CC1 [Example 58] , using 5HT2A (Homo sapiens) data.
2.20

Give log10 Ki only, for Cc1cc(CNC(=O)N(Cc2ccc(F)cc2F)C2CCN(C)CC2)ccc1OC(C)C [Example 145, Trifluoroacetic Acid] , using 5HT2A (Homo sapiens) data.
0.20

Give log10 Ki only, for CN1CCC(N(Cc2ccc(F)cc2F)C(=O)NCc2ccc(OC(C)(C)C)cc2)CC1 [Example 18] , using 5HT2A (Homo sapiens) data.
-0.50

Give log10 Ki only, for CN1CCC(N(Cc2ccc(F)cc2F)C(=O)NCc2ccc(F)cc2OC(F)(F)F)CC1 [Example 99, Trifluoroacetic Acid] , using 5HT2A (Homo sapiens) data.
1.90

Give log10 Ki only, for CC(C)(C)Oc1ccc(CNC(=O)N(Cc2ccc(F)cc2F)C2CCNCC2)cc1 [Example 149, Trifluoroacetic Acid] , using 5HT2A (Homo sapiens) data.
0.00

Give log10 Ki only, for CC(C)C(C)(O)COc1ccc(CNC(=O)N(Cc2ccc(F)cc2F)C2CCN(C)CC2)cc1 (stereo not drawn) [Example 87, Trifluoroacetic Acid] , using 5HT2A (Homo sapiens) data.
1.00

###

Reported IC50 is given for each of the following compounds.
system-tested: 5HT2A (Homo sapiens, UniProt P28223)
assay-text: Beta-arrestin recruitment assay (Tango technology, antagonist mode)
Assay type: cell-based
Set-up: engineered protease cleavage site followed by tethered transcription factor (C)
reported-conditions: read-out: 5HT2A (pIC50) Beta-arrestin (converted)
Only the number, expressed in nM, is required.

CN1CCC(N(Cc2ccc(F)cc2F)C(=O)NCc2ccc3c(c2)CCS3(=O)=O)CC1 = 631

# return recorded IC50 for entry CN1CCC(N(Cc2ccc(F)cc2F)C(=O)NCc2ccc3c(c2)CCN3C)CC1
15.8

# return recorded IC50 for entry CN1CCC(N(Cc2ccc(F)cc2F)C(=O)NCc2ccc3ncsc3c2)CC1
15.8

###

system-tested: hCav1.2/β2/α2δ channels (Homo sapiens, UniProt Q13936)
Sequence (Q13936 whole entry): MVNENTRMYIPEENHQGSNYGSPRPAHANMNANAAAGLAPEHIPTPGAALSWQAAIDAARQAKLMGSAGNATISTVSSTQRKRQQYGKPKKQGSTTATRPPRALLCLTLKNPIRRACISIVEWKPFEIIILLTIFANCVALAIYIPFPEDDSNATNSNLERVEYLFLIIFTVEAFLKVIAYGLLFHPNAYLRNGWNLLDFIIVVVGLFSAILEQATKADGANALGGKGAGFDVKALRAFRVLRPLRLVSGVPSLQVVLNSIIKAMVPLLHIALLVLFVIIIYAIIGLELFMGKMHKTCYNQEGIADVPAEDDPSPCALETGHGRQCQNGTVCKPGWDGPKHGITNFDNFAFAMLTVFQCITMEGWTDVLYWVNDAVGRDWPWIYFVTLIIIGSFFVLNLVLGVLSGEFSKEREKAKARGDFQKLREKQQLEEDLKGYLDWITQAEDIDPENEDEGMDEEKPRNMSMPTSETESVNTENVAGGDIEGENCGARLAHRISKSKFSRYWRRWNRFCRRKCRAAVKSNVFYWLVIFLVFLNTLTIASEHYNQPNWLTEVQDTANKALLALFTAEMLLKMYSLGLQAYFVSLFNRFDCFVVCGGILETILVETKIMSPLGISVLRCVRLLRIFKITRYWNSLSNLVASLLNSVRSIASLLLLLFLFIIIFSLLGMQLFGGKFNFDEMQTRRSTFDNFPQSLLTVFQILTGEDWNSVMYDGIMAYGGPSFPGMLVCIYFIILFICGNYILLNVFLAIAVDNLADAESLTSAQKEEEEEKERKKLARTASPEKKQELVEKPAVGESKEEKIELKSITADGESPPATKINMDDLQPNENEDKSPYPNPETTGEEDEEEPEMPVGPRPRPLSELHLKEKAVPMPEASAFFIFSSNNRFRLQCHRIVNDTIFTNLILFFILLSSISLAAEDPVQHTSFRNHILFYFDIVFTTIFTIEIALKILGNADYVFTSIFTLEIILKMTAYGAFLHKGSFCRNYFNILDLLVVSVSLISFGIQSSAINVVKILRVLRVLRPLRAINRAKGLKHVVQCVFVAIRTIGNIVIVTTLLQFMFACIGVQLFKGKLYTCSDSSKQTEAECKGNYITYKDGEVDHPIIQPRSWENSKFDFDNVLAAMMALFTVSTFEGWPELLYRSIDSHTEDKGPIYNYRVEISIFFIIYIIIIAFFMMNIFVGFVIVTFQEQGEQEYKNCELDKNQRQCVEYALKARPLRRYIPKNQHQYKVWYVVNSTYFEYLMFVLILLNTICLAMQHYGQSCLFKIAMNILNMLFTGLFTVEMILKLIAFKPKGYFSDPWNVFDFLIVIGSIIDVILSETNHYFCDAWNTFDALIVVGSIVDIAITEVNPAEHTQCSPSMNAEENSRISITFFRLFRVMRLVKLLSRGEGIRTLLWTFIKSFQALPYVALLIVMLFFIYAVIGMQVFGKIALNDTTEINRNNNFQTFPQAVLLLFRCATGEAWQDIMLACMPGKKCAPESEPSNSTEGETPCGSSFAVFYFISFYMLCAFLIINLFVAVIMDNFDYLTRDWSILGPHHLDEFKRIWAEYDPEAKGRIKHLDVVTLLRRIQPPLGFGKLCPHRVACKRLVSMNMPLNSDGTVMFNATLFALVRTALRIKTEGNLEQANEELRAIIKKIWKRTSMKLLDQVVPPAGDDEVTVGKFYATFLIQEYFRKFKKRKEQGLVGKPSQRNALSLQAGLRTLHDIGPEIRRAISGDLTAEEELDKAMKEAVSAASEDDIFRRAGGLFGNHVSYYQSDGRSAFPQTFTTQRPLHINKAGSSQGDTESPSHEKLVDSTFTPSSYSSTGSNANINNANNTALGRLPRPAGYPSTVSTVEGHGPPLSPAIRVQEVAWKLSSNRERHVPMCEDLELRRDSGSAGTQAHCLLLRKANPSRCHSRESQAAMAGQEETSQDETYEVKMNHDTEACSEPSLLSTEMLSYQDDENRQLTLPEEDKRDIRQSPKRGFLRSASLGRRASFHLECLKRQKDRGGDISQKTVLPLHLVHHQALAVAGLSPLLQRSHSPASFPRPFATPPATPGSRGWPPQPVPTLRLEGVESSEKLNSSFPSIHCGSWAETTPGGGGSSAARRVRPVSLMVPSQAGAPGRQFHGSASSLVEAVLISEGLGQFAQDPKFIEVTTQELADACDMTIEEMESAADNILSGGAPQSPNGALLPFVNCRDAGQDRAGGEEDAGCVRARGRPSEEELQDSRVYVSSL
Sequence (Q08289 whole entry partner): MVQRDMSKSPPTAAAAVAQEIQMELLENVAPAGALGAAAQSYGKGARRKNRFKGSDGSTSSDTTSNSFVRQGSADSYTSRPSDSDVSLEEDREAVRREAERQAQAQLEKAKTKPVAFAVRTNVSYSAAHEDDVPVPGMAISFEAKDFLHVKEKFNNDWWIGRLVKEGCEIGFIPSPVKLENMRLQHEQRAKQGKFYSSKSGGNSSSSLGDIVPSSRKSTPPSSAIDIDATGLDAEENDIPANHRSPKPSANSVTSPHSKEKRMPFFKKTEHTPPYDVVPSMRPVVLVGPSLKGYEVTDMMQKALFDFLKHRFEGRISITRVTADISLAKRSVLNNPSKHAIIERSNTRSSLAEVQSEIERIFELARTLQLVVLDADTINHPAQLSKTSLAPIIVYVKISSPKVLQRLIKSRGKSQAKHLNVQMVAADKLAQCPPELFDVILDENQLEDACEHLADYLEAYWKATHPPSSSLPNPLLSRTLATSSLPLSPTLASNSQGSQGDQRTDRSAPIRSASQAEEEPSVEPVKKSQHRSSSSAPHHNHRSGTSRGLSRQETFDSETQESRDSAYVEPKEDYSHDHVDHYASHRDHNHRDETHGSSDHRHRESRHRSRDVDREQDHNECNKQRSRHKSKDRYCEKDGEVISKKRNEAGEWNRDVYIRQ
Sequence (P54289 25-956 partner limits assumed): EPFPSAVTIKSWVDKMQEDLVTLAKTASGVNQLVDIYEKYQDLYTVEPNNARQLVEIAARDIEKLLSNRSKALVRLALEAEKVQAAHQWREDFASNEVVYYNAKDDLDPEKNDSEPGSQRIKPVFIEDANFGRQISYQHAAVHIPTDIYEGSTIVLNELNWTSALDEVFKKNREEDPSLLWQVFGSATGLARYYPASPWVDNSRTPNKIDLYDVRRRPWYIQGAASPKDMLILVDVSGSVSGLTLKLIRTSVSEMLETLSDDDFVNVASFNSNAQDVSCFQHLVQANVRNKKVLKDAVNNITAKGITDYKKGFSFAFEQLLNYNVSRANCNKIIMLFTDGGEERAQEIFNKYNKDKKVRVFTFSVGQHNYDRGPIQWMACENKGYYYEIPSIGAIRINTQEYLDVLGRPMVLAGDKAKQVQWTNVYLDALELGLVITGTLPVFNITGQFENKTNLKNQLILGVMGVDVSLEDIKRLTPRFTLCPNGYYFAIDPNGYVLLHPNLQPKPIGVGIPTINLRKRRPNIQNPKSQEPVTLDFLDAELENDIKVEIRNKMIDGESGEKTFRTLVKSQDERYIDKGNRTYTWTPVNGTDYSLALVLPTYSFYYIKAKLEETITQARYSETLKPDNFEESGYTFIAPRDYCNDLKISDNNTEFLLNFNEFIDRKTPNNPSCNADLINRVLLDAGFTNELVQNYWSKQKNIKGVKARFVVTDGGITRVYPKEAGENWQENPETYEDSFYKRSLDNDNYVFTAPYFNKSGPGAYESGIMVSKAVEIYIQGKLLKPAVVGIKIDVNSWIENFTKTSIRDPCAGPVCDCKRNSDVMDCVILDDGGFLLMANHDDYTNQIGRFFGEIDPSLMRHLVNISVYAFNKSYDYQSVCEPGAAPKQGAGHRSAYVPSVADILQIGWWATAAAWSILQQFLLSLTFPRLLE
Sequence (P54289 957-1103 partner limits assumed): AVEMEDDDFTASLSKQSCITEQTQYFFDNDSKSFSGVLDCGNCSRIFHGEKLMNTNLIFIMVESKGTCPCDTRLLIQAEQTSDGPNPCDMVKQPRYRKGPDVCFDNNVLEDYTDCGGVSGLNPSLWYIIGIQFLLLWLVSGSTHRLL
assay-text: CaV1.2 manual patch clamp, CHO cells (CR-CLE)
reported-conditions: manual patch clamp, room temperature, read-out: CaV 1.2 IC50
reported-metric: IC50 (nM)
Only the number, expressed in nM, is required.

Worked cases, IC50 given:
CC(C)Oc1ccc(CNC(=O)N(Cc2ccc(F)cc2F)C2CCN(C)CC2)cc1 [Example 5] = 11300
CN1CCC(N(Cc2ccc(F)cc2F)C(=O)NCc2ccc(OC3CC3)cc2)CC1 [Example 17] = 3500
CC(C)COc1ccc(CNC(=O)N(Cc2ccc(F)cc2)C2CCN(C)CC2)cc1 [Pimavanserin] = 1200

# return recorded IC50 for entry CC(C)COc1ccc(CNC(=O)N(Cc2ccc(F)cc2F)C2CCN(C)CC2)cc1 [Example 3]
1400

###

system-tested: hERG channel (Homo sapiens)
Construct: host or cells: CHO cells, stably transfected
assay-text: hERG assay, whole cell recordings in CHO cells (AVIVA)
Assay type: cell-based
reported-conditions: CHO cells stably expressing hERG, pH 7.4
# if value of inhibition at 1 µM reaches 30%, tag 1; if it stays below, tag 0

CC(C)Oc1ccc(CNC(=O)N(Cc2ccc(F)cc2Cl)C2CCN(C)CC2)cc1 [Example 61] = 0
CN1CCC(N(Cc2ccc(F)cc2F)C(=O)NCc2ccc3ncsc3c2)CC1 [Example 39] = 0
Cc1noc2ccc(CNC(=O)N(Cc3ccc(F)cc3F)C3CCN(C)CC3)cc12 [Example 28] = 1
CC(C)COc1ccc(CNC(=O)N(Cc2ccc(Cl)cc2Cl)C2CCN(C)CC2)cc1 [Example 107] = 1
CC(C)COc1ccc(CNC(=O)N(Cc2ccc(F)cc2Cl)C2CCN(C)CC2)cc1 [Example 62] = 1
CC(C)COc1ccc(CNC(=O)N(Cc2ccc(Cl)cc2F)C2CCN(C)CC2)cc1 [Example 139, Trifluoroacetic Acid] = 1
CC(C)Oc1ccc(CNC(=O)N(Cc2ccc(F)cc2F)C2CCNCC2)cc1 [Example 142] = 0

As a next step, examine the compound that follows.
Reported inhibition at 1 µM reaches at least 30% for CN1CCC(N(Cc2ccc(F)cc2F)C(=O)NCc2ccc3c(c2)C(C)(C)CO3)CC1 [Example 9] ?
1
